# System: mixed lymphocyte reaction (PBMC with allogeneic PBMC or Eppstein-Barr Virus-transformed human B cells as stimulator cells)
# METHOD_DESCRIPTION: Mixed lymphocyte reaction (MLR) assay
# Type: cell-based
# CONDITION_DETAILS: lowest concentration giving 50% suppression of the MLR; [3H]-thymidine
pIC50: −log10 of the molar value.
pIC50 values for the molecules below.
OBSERVABLE: pIC50

- COc1ccc(-c2cnc3nc(N)nc(N4CCN(Cc5c(Cl)cccc5Cl)CC4)c3n2)cc1OC: 5.12
- COCCOC(=O)N1CCN(c2nc(N)nc3ncc(-c4ccc(OC)c(OC)c4)nc23)CC1: 6.62
- CCCCCOc1ccc(C(=O)N2CCN(c3nc(N)nc4ncc(-c5ccc(OC)c(OC)c5)nc34)CC2)cc1: 5.22
- CC(=O)N1CCN(c2nc(N)nc3ncc(-c4ccc(C)cc4)nc23)CC1: 5.55
- COc1ccc(-c2cnc3nc(N)nc(N4CCN(C(=O)Nc5ccc(C)cc5)CC4)c3n2)cc1OC: 9.10
- CC(=O)N1CCN(c2nc(N)nc3ncc(-c4ccccc4)nc23)CC1: 5.29
- COc1ccc(-c2cnc3nc(N)nc(N4CCN(c5ccccc5)CC4)c3n2)cc1OC: 6.40
- COc1ccc(-c2cnc3nc(N)nc(N4CCN(C(=O)Nc5cccc(I)c5)CC4)c3n2)cc1OC: 7.40

====

# System: production of TNF-α by PBMC in response to stimulation by LPS
# METHOD_DESCRIPTION: TNF-α assay
# Assay type: cell-based, human
# CONDITION_DETAILS: Homo sapiens, LPS 1 μg/ml, 72 hours, sandwich ELISA
Structures can show the parent of a compound that is named as a salt.
Entries and their IC50
OBSERVABLE: IC50 (nM)

* COc1ccc(-c2cnc3nc(N)nc(N4CCN(CCN5CCCCC5)CC4)c3n2)cc1OC [Example 184, trihydrochloride salt] | 700
* CCOCCN1CCN(c2nc(N)nc3ncc(-c4ccc(OC)c(OC)c4)nc23)CC1 | 300
* CCCN(CCC)CCN1CCN(c2nc(N)nc3ncc(-c4ccc(OC)c(OC)c4)nc23)CC1 [Example 183, trihydrochloride salt] | 1200
* COc1ccc(-c2cnc3nc(N)nc(N4CCN(CCC5OCCO5)CC4)c3n2)cc1OC | 200

====

# System: mixed lymphocyte reaction (PBMC with allogeneic PBMC or Eppstein-Barr Virus-transformed human B cells as stimulator cells)
# METHOD_DESCRIPTION: Mixed lymphocyte reaction (MLR) assay
# Format: cell-based
# CONDITION_DETAILS: lowest concentration giving 50% suppression of the MLR; [3H]-thymidine
OBSERVABLE: IC50 (nM)

* COc1ccc(-c2cnc3nc(N)nc(N4CCN(C(=O)Oc5ccc(C)cc5)CC4)c3n2)cc1OC | 58
* COc1ccc(-c2cnc3nc(N)nc(N4CCN(Cc5ccccc5F)CC4)c3n2)cc1OC | 700
* COc1ccc(-c2cnc3nc(N)nc(N4CCN(CC5CCCCC5)CC4)c3n2)cc1OC | 3900
* CC(=O)N1CCN(c2nc(N)nc3ncc(-c4ccc(Cl)cc4)nc23)CC1 | 7600
* COc1ccc(-c2cnc3nc(N)nc(N4CCN(C(=S)Oc5ccccc5)CC4)c3n2)cc1OC | 300
* COc1ccc(-c2cnc3nc(N)nc(N4CCN(C(=O)c5ccccc5OC)CC4)c3n2)cc1OC | 400
* COc1ccc(-c2cnc3nc(N)nc(N4CCN(C(=O)Nc5cccc(Cl)c5)CC4)c3n2)cc1OC | 36
* COc1ccc(-c2cnc3nc(N)nc(N4CCN(C(=O)OCC(C)C)CC4)c3n2)cc1OC | 120
* COCCN1CCN(c2nc(N)nc3ncc(-c4ccc(OC)c(OC)c4)nc23)CC1 | 800
* COCC(=O)N1CCN(c2nc(N)nc3ncc(-c4ccc(OC)c(OC)c4)nc23)CC1 | 500
* COc1ccc(-c2cnc3nc(N)nc(N4CCN(C(=O)Nc5ccc(C#N)cc5)CC4)c3n2)cc1OC | 74
* COc1ccc(-c2cnc3nc(N)nc(N4CCN(C(=O)NCCc5cccs5)CC4)c3n2)cc1OC | 34
* CCCCc1ccc(C(=O)N2CCN(c3nc(N)nc4ncc(-c5ccc(OC)c(OC)c5)nc34)CC2)cc1 | 300
* COc1ccc(-c2cnc3nc(N)nc(N4CCN(C(=O)COc5ccc(Cl)cc5)CC4)c3n2)cc1OC | 0.5
* COc1ccc(-c2cnc3nc(N)nc(N4CCN(C(=O)NCc5ccc(F)cc5)CC4)c3n2)cc1OC | 37
* COc1ccc(-c2cnc3nc(N)nc(N4CCN(CC(C)C)CC4)c3n2)cc1OC | 1600

====

# Test system: production of TNF-α by PBMC in response to stimulation by LPS
# METHOD_DESCRIPTION: TNF-α assay
# Type: cell-based, human
# CONDITION_DETAILS: Homo sapiens, LPS 1 μg/ml, 72 hours, sandwich ELISA
pIC50: −log10 of the molar value. Where a name gives a salt, the structure may show the parent alone.
Reported pIC50 by item:
OBSERVABLE: pIC50

• COc1ccc(-c2cnc3nc(N)nc(N4CCN(CCN(C)C)CC4)c3n2)cc1OC [Example 181, trihydrochloride salt] = 5.06
• COc1ccc(-c2cnc3nc(N)nc(N4CCN(CCCN(C)C)CC4)c3n2)cc1OC [Example 182, trihydrochloride salt] = 5.32
• COc1ccc(-c2cnc3nc(N)nc(N4CCC(C(=O)CN5CCNCC5)C4)c3n2)cc1OC (stereo not drawn) = 5.72

====

Let's look at some molecules and their measured pIC50.
# Test system: mixed lymphocyte reaction (PBMC with allogeneic PBMC or Eppstein-Barr Virus-transformed human B cells as stimulator cells)
# METHOD_DESCRIPTION: Mixed lymphocyte reaction (MLR) assay
# Type: cell-based
# CONDITION_DETAILS: lowest concentration giving 50% suppression of the MLR; [3H]-thymidine
pIC50: −log10 of the molar value.
OBSERVABLE: pIC50

- COc1ccc(-c2cnc3nc(N)nc(N4CCN(c5ncccn5)CC4)c3n2)cc1OC [Example 147]: 6.70
- COc1ccc(-c2cnc3nc(N)nc(N4CCN(C(=O)N(C)c5ccc(C)cc5)CC4)c3n2)cc1OC [Example 119]: 6.52
- COc1ccc(-c2cnc3nc(N)nc(N4CCN(C(=O)c5ccc(F)cc5)CC4)c3n2)cc1OC [Example 32]: 6.40
- COc1ccc(-c2cnc3nc(N)nc(N4CCN(c5ccncc5)CC4)c3n2)cc1OC [Example 145]: 5.46
- COc1ccc(-c2cnc3nc(N)nc(N4CCN(C(=O)OCc5ccccc5)CC4)c3n2)cc1OC [Example 48]: 6.52
- COc1ccc(-c2cnc3nc(N)nc(N4CCN(C(=S)N(C)C)CC4)c3n2)cc1OC [Example 49]: 6.40
- COc1ccc(-c2cnc3nc(N)nc(N4CCN(C(=O)Nc5ccccc5)CC4)c3n2)cc1OC [Example 99]: 8.47
- COc1ccc(-c2cnc3nc(N)nc(N4CCN(C(=O)N5CCCC5)CC4)c3n2)cc1OC [Example 38]: 6.52
- CCC(CC)N1CCN(c2nc(N)nc3ncc(-c4ccc(OC)c(OC)c4)nc23)CC1 [Example 166]: 5.28

====

# System: mixed lymphocyte reaction (PBMC with allogeneic PBMC or Eppstein-Barr Virus-transformed human B cells as stimulator cells)
# METHOD_DESCRIPTION: Mixed lymphocyte reaction (MLR) assay
# Type: cell-based
# CONDITION_DETAILS: lowest concentration giving 50% suppression of the MLR; [3H]-thymidine
pIC50: −log10 of the molar value.
OBSERVABLE: pIC50

* COc1ccc(-c2cnc3nc(N)nc(N4CCN(c5cc(Cl)cc(Cl)c5)CC4)c3n2)cc1OC [Example 171] | 5.47
* COc1ccc(-c2cnc3nc(N)nc(N4CCN(Cc5ccccn5)CC4)c3n2)cc1OC [Example 177] | 6.10
* COc1ccc(OC(=O)N2CCN(c3nc(N)nc4ncc(-c5ccc(OC)c(OC)c5)nc34)CC2)cc1 [Example 91] | 7.28
* COc1ccc(-c2cnc3nc(N)nc(N4CCN(c5ccc(Cl)c(Cl)c5)CC4)c3n2)cc1OC [Example 150] | 6.00
* COc1ccc(-c2cnc3nc(N)nc(N4CCN(C(=O)Cc5ccc(Cl)cc5)CC4)c3n2)cc1OC [Example 45] | 7.05
* COc1ccc(-c2cnc3nc(N)nc(N4CCN(c5ccc([N+](=O)[O-])cc5C(F)(F)F)CC4)c3n2)cc1OC [Example 186] | 5.30
* COc1ccc(-c2cnc3nc(N)nc(N4CCN(CC5CCCN(C)C5)CC4)c3n2)cc1OC (stereo not shown) [Example 179] | 5.10
* COc1ccc(-c2cnc3nc(N)nc(N4CCN(c5nccs5)CC4)c3n2)cc1OC [Example 178] | 5.89
* COc1ccc(-c2cnc3nc(N)nc(N4CCN(Cc5ccc(C(C)(C)C)cc5)CC4)c3n2)cc1OC [Example 144] | 5.37
* COc1ccc(-c2cnc3nc(N)nc(N4CCN(C(=O)CCc5ccccc5)CC4)c3n2)cc1OC [Example 15] | 7.00
* COc1ccc(-c2cnc3nc(N)nc(N4CCN(Cc5ccncc5)CC4)c3n2)cc1OC [Example 157] | 6.30
* CCCCCC(=O)N1CCN(c2nc(N)nc3ncc(-c4ccc(OC)c(OC)c4)nc23)CC1 [Example 10] | 7.00
* COc1ccc(-c2cnc3nc(N)nc(N4CCN(C(=O)NCc5ccccc5)CC4)c3n2)cc1OC [Example 104] | 7.74
* COc1ccc(-c2cnc3nc(N)nc(N4CCN(C(=O)c5ccc(Cl)c(Cl)c5)CC4)c3n2)cc1OC [Example 44] | 6.70
* COc1ccc(-c2cnc3nc(NCCc4ccccc4)nc(N)c3n2)cc1OC [Example 79] | 5.39
* COc1ccc(-c2cnc3nc(N)nc(N4CCN(CCCc5ccccc5)CC4)c3n2)cc1OC [Example 149] | 6.30

This collection of values is drawn from patent US20070032477A1.
